- System: Tyrosine-protein kinase CSK (Homo sapiens) (UniProt P41240);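 further: value given is the averaged percent inhibition of CSK kinase activity, from the GSK PKIS kinase inhibitor set screening panel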
- Sequence (P41240 2-450 limits assumed): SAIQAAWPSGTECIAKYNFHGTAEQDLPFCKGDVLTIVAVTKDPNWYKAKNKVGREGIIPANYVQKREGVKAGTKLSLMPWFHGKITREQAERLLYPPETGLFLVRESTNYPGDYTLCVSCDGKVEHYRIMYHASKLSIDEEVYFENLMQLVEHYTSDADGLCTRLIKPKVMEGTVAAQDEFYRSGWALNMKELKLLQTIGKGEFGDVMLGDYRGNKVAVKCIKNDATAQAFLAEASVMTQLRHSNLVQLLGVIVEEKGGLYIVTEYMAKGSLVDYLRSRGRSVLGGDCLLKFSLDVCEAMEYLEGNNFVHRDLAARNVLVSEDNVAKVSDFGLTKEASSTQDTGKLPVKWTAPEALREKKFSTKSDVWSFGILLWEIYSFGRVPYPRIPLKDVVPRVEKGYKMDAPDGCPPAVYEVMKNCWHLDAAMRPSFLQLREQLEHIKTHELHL
- Condition Info: at 0.1 µM
Measurement Label: inhibition (%)
The answer is to be given in %; state only the numeric part.

Record excerpt, results attached:
Cn1c(-c2nonc2N)nc2cnccc21 :: 3.1
COc1c(C(N)=O)cc(-c2ccc(Cl)cc2)cc1-c1ccc(S(N)(=O)=O)cc1 :: 3.55
COc1ccc(-c2nn3ncccc3c2-c2ccnc(Nc3ccc(F)c(F)c3)n2)cc1 :: 4.89
OCCCNc1nccc(-c2c(-c3ccc(F)cc3)nn3cc(C(F)(F)F)ccc23)n1 :: 4.06

## Input What inhibition appears in the records for this compound with Tyrosine-protein kinase CSK (Homo sapiens) (UniProt P41240)? O=C1Nc2ccccc2/C1=C1\CCc2cc(O)ccc21
## Output 5.49

----------
# inhibition listing for each entry below
- System: Leukocyte tyrosine kinase receptor (Homo sapiens);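 further: each value is the mean inhibition of LTK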
- Condition Info: at 1 µM
The answer is to be given in %; state only the numeric part.

## Input What inhibition appears in the records for this compound with Leukocyte tyrosine kinase receptor (Homo sapiens)? Cc1c2ccc(N(C)c3ccnc(Nc4cccc(S(N)(=O)=O)c4)n3)cc2nn1C
## Output 24.1

## Input Please answer likewise for CN(C)CCNC(=O)Nc1ccc(N(C)c2ccnc(Nc3ccc(CS(C)(=O)=O)cc3)n2)cc1
## Output 10.1

----------
# inhibition listing for each entry below
- System: Tyrosine-protein kinase Fer (Homo sapiens) (UniProt P16591)
- Sequence (P16591 whole entry, looked up): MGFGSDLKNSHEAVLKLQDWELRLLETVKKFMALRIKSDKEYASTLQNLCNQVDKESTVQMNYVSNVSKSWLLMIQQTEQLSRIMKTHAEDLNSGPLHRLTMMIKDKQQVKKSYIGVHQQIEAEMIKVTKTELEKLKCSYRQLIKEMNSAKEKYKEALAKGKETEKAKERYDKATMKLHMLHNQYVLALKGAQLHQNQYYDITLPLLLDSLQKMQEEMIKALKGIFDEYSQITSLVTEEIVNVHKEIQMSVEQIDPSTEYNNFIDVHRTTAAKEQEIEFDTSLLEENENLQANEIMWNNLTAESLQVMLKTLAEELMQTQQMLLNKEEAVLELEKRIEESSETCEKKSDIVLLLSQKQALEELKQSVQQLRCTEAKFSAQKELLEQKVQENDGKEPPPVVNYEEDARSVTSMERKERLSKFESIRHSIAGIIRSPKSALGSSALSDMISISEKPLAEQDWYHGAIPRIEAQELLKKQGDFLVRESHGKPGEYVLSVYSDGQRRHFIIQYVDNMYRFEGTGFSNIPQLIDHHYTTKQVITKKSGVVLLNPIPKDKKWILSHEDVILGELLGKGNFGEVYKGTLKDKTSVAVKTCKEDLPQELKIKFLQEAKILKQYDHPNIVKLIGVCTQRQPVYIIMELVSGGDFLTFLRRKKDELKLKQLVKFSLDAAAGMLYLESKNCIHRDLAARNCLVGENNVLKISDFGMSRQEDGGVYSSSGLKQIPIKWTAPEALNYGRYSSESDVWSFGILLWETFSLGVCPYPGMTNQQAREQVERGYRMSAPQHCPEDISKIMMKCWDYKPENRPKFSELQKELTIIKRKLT
- Condition Info: at 1 µM
- Description: GSK_PKIS: FER mean inhibition at 1 uM [Nanosyn]
The answer is to be given in %; state only the numeric part.

Record excerpt, results attached:
CNC(=O)c1cncc(/C=C/c2ccccc2C)c1 :: 4.88
COc1cc(N2CCN(C(C)C)CC2)ccc1Nc1nc(Nc2cccc(F)c2C(=O)O)c2cc[nH]c2n1 :: 75.6
O=C(O[C@H]1CN[C@H](C#Cc2cc3ncnc(Nc4ccc5c(ccn5Cc5cc(F)ccc5F)c4)c3s2)C1)N1CCOCC1 :: 5.55
CS(=O)(=O)CCNCc1ccc(-c2ccc3ncnc(Nc4ccc(OCc5ccccc5)cc4)c3c2)o1 :: 0.38
Cc1nnc(-c2cccc(-c3ccc(C(=O)NCC4CC4)cc3)c2)o1 :: 3.05

## Input For the compound FC(F)(F)CNc1nccc(-c2cnn3ncccc23)n1 , what inhibition is on record?
## Output 0.92

## Input Please answer likewise for Fc1cccc(COc2ccc(Nc3ncncc3C#Cc3ccccc3)cc2Cl)c1
## Output 6.06

## Input Please answer likewise for CN(c1ccc(NC(=O)NCCN2CCOCC2)cc1)c1ccnc(Nc2ccc(CS(C)(=O)=O)cc2)n1
## Output 20.6

## Input Please answer likewise for COc1ccc(Nc2ncc(-c3ccccc3)o2)cc1OC
## Output 4.34

## Input Please answer likewise for N#Cc1cccc(Nc2ncc(-c3ccccc3)o2)c1
## Output 5.33

## Input Please answer likewise for CC(C)c1ccc(-c2cc(-c3c[nH]nc3-c3ccccn3)ccn2)cc1
## Output 2.58

## Input Please answer likewise for O=C(O[C@H]1CN[C@H](C#Cc2cc3ncnc(Nc4ccc(OCc5cccc(F)c5)c(Cl)c4)c3s2)C1)N1CCOCC1
## Output 5.25

## Input Please answer likewise for N#Cc1ccc2c(-c3ccnc(NC4CC4)n3)c(-c3ccc(F)cc3)nn2c1
## Output -0.62

----------
- Tested on: Tyrosine-protein kinase ABL1 (Homo sapiens), P00519 [Q252H]
- Condition Info: at 0.1 µM
Measurement Label: inhibition (%)
The answer is to be given in %; state only the numeric part.

O=C(O[C@H]1CN[C@H](C#Cc2cc3ncnc(Nc4ccc5c(ccn5Cc5cc(F)ccc5F)c4)c3s2)C1)N1CCOCC1 :: 3.74
COc1ccccc1-c1cc(/C=C2\C(=O)Nc3ncc(Br)cc32)cc(Br)c1O :: 6.3
CS(=O)(=O)CCNCc1ccc(-c2ccc3ncnc(Nc4ccc(OCc5cccc(C(F)(F)F)c5)cc4)c3c2)o1 :: 3.36
CC(C)c1ccc(-c2cc(-c3c[nH]nc3-c3ccccn3)ccn2)cc1 :: 3.86
COc1cc(N2CCN(C(C)C)CC2)ccc1Nc1nc(Nc2cccc(F)c2C(=O)O)c2cc[nH]c2n1 :: 4.74
COc1cccc(-n2ncc3c(N/N=C/c4ccc(C(=O)NCCN(C)C)cc4)ncnc32)c1 :: 94.2
c1ccc(-c2n[nH]cc2-c2ccnc(-c3ccc(OCCn4ccnc4)cc3)c2)nc1 :: 25.9
COc1cc2c(cc1Nc1nc(Nc3cccc(F)c3C(N)=O)c3cc[nH]c3n1)N(C(=O)CN1CCN(C(C)C)CC1)CC2 :: -0.13

## Input For the compound FC(F)(F)CNc1nccc(-c2cnn3ncccc23)n1 , what inhibition is on record?
## Output 1.08

## Input Please answer likewise for COc1cc(Nc2ncc(-c3ccccc3)o2)cc(OC)c1
## Output 9.25

## Input Please answer likewise for COc1cccc(Nc2nccc(-c3cnn4ncccc34)n2)c1
## Output 9.38

## Input Please answer likewise for N#Cc1ccc2c(-c3ccnc(NC4CC4)n3)c(-c3ccc(F)cc3)nn2c1
## Output 0.81
